Quick reference for cytotoxicity at 24 h, 500 μg/mL among some compounds
# method_summary: In vitro cytotoxicity by MTT assay on HepG2 cell line
# Type: cell-based, human
# test_conditions: human, HepG2 cells, Test Conc. 500 μg/mL
// note: answer is a bare numeric in %

cytotoxicity at 24 h, 500 μg/mL in this record for CC(=O)O[C@H](CC(=O)O)C[N+](C)(C)C [N-Acetyl L carnitine] : 1.69

Below: the item to evaluate.
Reported cytotoxicity at 24 h, 500 μg/mL of CC(=O)NCCS(=O)(=O)O [Magnesium Acetyl Taurate, dihydrate] : 1.53

###

# method_summary: In vitro cytotoxicity by MTT assay on HepG2 cell line
# Assay type: cell-based, human
# test_conditions: human, HepG2 cells, Test Conc. 62.5 μg/mL
# Experimental: The in vitro cytotoxicity was performed on HepG2 (Human Hepatocellular Carcinoma) cell line to find the non-toxic concentrations of the test substances by MTT assay and evaluate their modulatory potential on cellular ATP levels […] After 24 h of incubation, the drug solutions in the wells were discarded and 50 μl of MTT in DPBS was added to each well. […] The absorbance was measured using a microplate reader at a wavelength of 570 nm. […]
assay_endpoint: cytotoxicity at 24 h, 62.5 μg/mL (%)
Output spec: scalar in %, unitless text.

For CC(=O)O[C@H](CC(=O)O)C[N+](C)(C)C the compound record lists cytotoxicity at 24 h, 62.5 μg/mL as 0.982

Now let's try a different one.
Kindly note the recorded cytotoxicity at 24 h, 62.5 μg/mL for CC(=O)NCCS(=O)(=O)O [Magnesium Acetyl Taurate, dihydrate] , which is 1.31

###

# method_summary: In vitro cytotoxicity by MTT assay on HepG2 cell line
# Format: cell-based, human
# test_conditions: human, HepG2 cells, Test Conc. 2000 μg/mL
assay_endpoint: cytotoxicity at 24 h, 2000 μg/mL (%)
Number only, in %; omit the unit.

cytotoxicity at 24 h, 2000 μg/mL reported for this compound CC(=O)O[C@H](CC(=O)O)C[N+](C)(C)C : 2.62

Next, consider the following compound.
# cytotoxicity at 24 h, 2000 μg/mL (compound: CC(=O)NCCS(=O)(=O)O [Magnesium Acetyl Taurate, dihydrate] ) is 6.55

###

Quick list: cytotoxicity at 24 h, 5000 μg/mL per entry.
# method_summary: In vitro cytotoxicity by MTT assay on HepG2 cell line
# Assay type: cell-based, human
# test_conditions: human, HepG2 cells, Test Conc. 5000 μg/mL

Record CC(=O)O[C@H](CC(=O)O)C[N+](C)(C)C , field cytotoxicity at 24 h, 5000 μg/mL: 32.6%

Could you now consider this next compound?
CC(=O)NCCS(=O)(=O)O [Magnesium Acetyl Taurate, dihydrate] has a reported cytotoxicity at 24 h, 5000 μg/mL of 12.2%

###

Entries annotated with measured cytotoxicity at 24 h, 1000 μg/mL
# method_summary: In vitro cytotoxicity by MTT assay on HepG2 cell line
# Format: cell-based, human
# test_conditions: human, HepG2 cells, Test Conc. 1000 μg/mL
Numbers only here, please. The scale is %.

Please fill in: cytotoxicity at 24 h, 1000 μg/mL reported for CC(=O)NCCS(=O)(=O)O [Magnesium Acetyl Taurate, dihydrate] = 1.36

Continuing:
// sample CC(=O)O[C@H](CC(=O)O)C[N+](C)(C)C , its cytotoxicity at 24 h, 1000 μg/mL was 2.46

###

# method_summary: In vitro cytotoxicity by MTT assay on HepG2 cell line
# Type: cell-based, human
# test_conditions: human, HepG2 cells, Test Conc. 250 μg/mL
# Lookup of reported cytotoxicity at 24 h, 250 μg/mL keyed by entry
Give the number; % is assumed, so skip it.

Query CC(=O)NCCS(=O)(=O)O [Magnesium Acetyl Taurate, dihydrate] yields cytotoxicity at 24 h, 250 μg/mL of 1.75

Further cases:
The reported cytotoxicity at 24 h, 250 μg/mL of the compound CC(=O)O[C@H](CC(=O)O)C[N+](C)(C)C [N-Acetyl L carnitine] was 1.31

###

# method_summary: In vitro cytotoxicity by MTT assay on HepG2 cell line
# Format: cell-based, human
# test_conditions: human, HepG2 cells, Test Conc. 3000 μg/mL
Known cytotoxicity at 24 h, 3000 μg/mL of a selection of molecules
Give the value, in units of %, as a plain number.

Sample CC(=O)NCCS(=O)(=O)O [Magnesium Acetyl Taurate, dihydrate] ; cytotoxicity at 24 h, 3000 μg/mL observed: 3.71

Okay, next one:
Record CC(=O)O[C@H](CC(=O)O)C[N+](C)(C)C , field cytotoxicity at 24 h, 3000 μg/mL: 3
